tested.target: survivin (Homo sapiens, UniProt O15392)
Construct: transferred to the survivin1-142 construct used in the present study; His8 tag (pHIS8 vector, thrombin-cleavable); made in house; host or cells: E. coli BL21(DE3) star
Sequence (O15392 whole entry): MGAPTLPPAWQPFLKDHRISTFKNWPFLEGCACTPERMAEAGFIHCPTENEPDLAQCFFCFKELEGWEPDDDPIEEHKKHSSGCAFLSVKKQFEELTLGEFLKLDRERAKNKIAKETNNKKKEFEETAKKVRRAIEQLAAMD
assay.info: PEPperCHIP peptide microarray, survivin interaction
Assay type: binding
measurement.conditions: 1 μg/mL survivin; in units of the maximum FI per peptide; 15-mer microarray peptides covering the residues
value.type: Integrated FI

>>> result_number("SQGEIRLLQSYVDADADENFYTCAW [EED128-152, PRC2-derived peptide, EED residues 128–152, synthesized by Biomatik]")
0.31
>>> result_number("VELVNALGQYNDDDDDDDGD DPEEREEKQKDLEDHRDDKE [EZH2_172-211, PRC2-derived peptide, EZH2 residues 172–211, synthesized by Biomatik]")
4.28
>>> result_number("PLRPQEMEVDSEDEKDPEWLREKTI [SUZ12_573-597, PRC2-derived peptide, SUZ12 residues 573–597, synthesized by Biomatik]")
0.6
>>> result_number("PNSMVYFGSSQDEEEVEEEDDETED [JARID2_170-194, PRC2-derived peptide, JARID2 residues 170–194, synthesized by Biomatik]")
3.00

* * *

Below is a list of entries, each paired with its recorded <b> value.
tested.target: [U-15N]-survivin (Homo sapiens, UniProt O15392)
Construct: transferred to the survivin1-142 construct used in the present study; His8 tag (pHIS8 vector, thrombin-cleavable); made in house; host or cells: E. coli BL21(DE3) star, M9 medium with 15NH4Cl
Sequence (O15392 whole entry): as the sequence (O15392 whole entry) above
assay.info: NMR titration of [U-15N]-survivin with PRC2-derived peptides
Format: binding
measurement.conditions: logistic function parameter b, posterior mean (Table S10)
value.type: <b>

>>> result_number("VELVNALGQYNDDDDDDDGD DPEEREEKQKDLEDHRDDKE [EZH2_172-211, PRC2-derived peptide, EZH2 residues 172–211, synthesized by Biomatik]")
0.32
>>> result_number("SQGEIRLLQSYVDADADENFYTCAW [EED128-152, PRC2-derived peptide, EED residues 128–152, synthesized by Biomatik]")
0.51
>>> result_number("PLRPQEMEVDSEDEKDPEWLREKTI [SUZ12_573-597, PRC2-derived peptide, SUZ12 residues 573–597, synthesized by Biomatik]")
0.87
>>> result_number("PNSMVYFGSSQDEEEVEEEDDETED [JARID2_170-194, PRC2-derived peptide, JARID2 residues 170–194, synthesized by Biomatik]")
0.79

* * *

tested.target: [U-15N]-survivin (Homo sapiens, UniProt O15392)
Construct: transferred to the survivin1-142 construct used in the present study; His8 tag (pHIS8 vector, thrombin-cleavable); made in house; host or cells: E. coli BL21(DE3) star, M9 medium with 15NH4Cl
assay.info: NMR titration of [U-15N]-survivin with PRC2-derived peptides
Format: binding
measurement.conditions: logistic function parameter L, posterior mean (Table S10)
value.type: <L>

>>> result_number("SQGEIRLLQSYVDADADENFYTCAW [EED128-152, PRC2-derived peptide, EED residues 128–152, synthesized by Biomatik]")
-0.00
>>> result_number("VELVNALGQYNDDDDDDDGD DPEEREEKQKDLEDHRDDKE [EZH2_172-211, PRC2-derived peptide, EZH2 residues 172–211, synthesized by Biomatik]")
0.68
>>> result_number("PLRPQEMEVDSEDEKDPEWLREKTI [SUZ12_573-597, PRC2-derived peptide, SUZ12 residues 573–597, synthesized by Biomatik]")
-0.59
>>> result_number("PNSMVYFGSSQDEEEVEEEDDETED [JARID2_170-194, PRC2-derived peptide, JARID2 residues 170–194, synthesized by Biomatik]")
-0.53

Each recorded value in this set is attributed to paper PMC10391610.
